- Assay text: NCI Yeast Anticancer Drug Screen. Data for the rad50 strain (AID 155);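 further: 0% = growth of vehicle-only cultures of the same strain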
- Recorded conditions: S. cerevisiae rad50 strain growth inhibition; at 1.2 µM; stronger effect = higher value
About 79,000 compounds went through this panel and 15% of them were active in at least one assay; those are over-represented in the sample as a whole.
Metric name: growth inhibition (%)
The reply should be a number in %, with the unit left off.

Query: Fill in the blank: the reported growth inhibition of `CCCCCCCCCCCCCCCCNC(=O)/C(=C\c1ccc(Cl)c(Cl)c1)NC(=O)c1ccccc1` is ____.
Result: -2

Query: Next record, please: `Cn1c2nc3ccccc3c-2nc2ccccc21`
Result: 27

Query: Next record, please: Cc1cc(O)c2c(c1O)C(=O)C13C(=C2O)C(=O)C2C(O)C1C1C(O)C3C(=O)C3=C(O)c4c(O)cc(C)c(O)c4C(=O)C321 (centres undefined)
Result: 29

Query: Next record, please: COc1ccc(N2C(=O)CC(Cl)C2=O)cc1 (centres undefined)
Result: -16
